ASSAY REMARKS: Plasma clearance in rat at 1 mg/kg iv or 2 mg/kg po
Assay type: ADME, organism-based
The reader will find reported clearance values listed item by item below.

SMILES STRUCTURE: N[C@H]1CN(c2cnc3nccnc3n2)CC[C@@H]1c1cc(F)c(F)cc1F.O=C(O)C(F)(F)F
clearance [mL/min/kg]: 62
//
SMILES STRUCTURE: N[C@H]1CN(c2ccn3cnnc3n2)CC[C@@H]1c1cc(F)c(F)cc1F.O=C(O)C(F)(F)F
clearance [mL/min/kg]: 54
//
SMILES STRUCTURE: Cc1cc(=O)n2nc(N3CC[C@H](c4cc(F)c(F)cc4F)[C@@H](N)C3)ccc2n1.O=C(O)C(F)(F)F
clearance [mL/min/kg]: 18
//
SMILES STRUCTURE: Cc1nnc2ccc(N3CC[C@H](c4cc(F)c(F)cc4F)[C@@H](N)C3)nn12.O=C(O)C(F)(F)F
clearance [mL/min/kg]: 12
//
SMILES STRUCTURE: N[C@H]1CN(c2ccc3nc(=O)ccn3n2)CC[C@@H]1c1cc(F)c(F)cc1F.O=C(O)C(F)(F)F
clearance [mL/min/kg]: 35

====

SYSTEM NAME: Dipeptidyl peptidase 4 (Homo sapiens)
Sequence (P27487 whole entry): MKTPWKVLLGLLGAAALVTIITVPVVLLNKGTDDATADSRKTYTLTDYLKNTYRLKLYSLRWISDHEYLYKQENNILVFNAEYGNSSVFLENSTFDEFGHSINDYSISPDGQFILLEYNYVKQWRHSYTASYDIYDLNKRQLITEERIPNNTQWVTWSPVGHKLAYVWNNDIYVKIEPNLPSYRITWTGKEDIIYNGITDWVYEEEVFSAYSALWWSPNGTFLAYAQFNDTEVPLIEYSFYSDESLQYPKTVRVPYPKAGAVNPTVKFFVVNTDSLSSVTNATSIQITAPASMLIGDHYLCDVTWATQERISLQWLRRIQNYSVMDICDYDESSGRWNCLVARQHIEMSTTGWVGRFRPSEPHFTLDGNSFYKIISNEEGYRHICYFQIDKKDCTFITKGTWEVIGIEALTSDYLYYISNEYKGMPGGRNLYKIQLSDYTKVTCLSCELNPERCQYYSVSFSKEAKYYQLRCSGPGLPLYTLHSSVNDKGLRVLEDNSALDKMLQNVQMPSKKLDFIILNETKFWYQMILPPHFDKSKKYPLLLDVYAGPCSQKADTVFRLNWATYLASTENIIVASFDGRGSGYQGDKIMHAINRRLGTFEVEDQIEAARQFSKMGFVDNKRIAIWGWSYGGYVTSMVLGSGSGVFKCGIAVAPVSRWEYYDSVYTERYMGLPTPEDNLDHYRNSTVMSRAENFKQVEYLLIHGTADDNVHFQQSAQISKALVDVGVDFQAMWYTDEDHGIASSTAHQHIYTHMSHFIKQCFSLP
Please assign a class to every record based on measured IC50, with ranges LOW: < 0.01 µM; MID: ≥ 0.01 µM and < 0.06 µM; HIGH: ≥ 0.06 µM

SMILES STRUCTURE: N[C@H]1CN(c2cnc3cccnc3n2)CC[C@@H]1c1cc(F)c(F)cc1F
QUALITATIVE LABEL: HIGH
--
SMILES STRUCTURE: N[C@H]1CN(c2nccc3ccccc23)CC[C@@H]1c1cc(F)c(F)cc1F
QUALITATIVE LABEL: HIGH
--
SMILES STRUCTURE: N[C@H]1CN(c2ccc3nc(C(F)(F)F)cn3n2)CC[C@@H]1c1cc(F)c(F)cc1F
QUALITATIVE LABEL: MID
--
SMILES STRUCTURE: N[C@H]1CN(c2ccn3cnnc3n2)CC[C@@H]1c1cc(F)c(F)cc1F.O=C(O)C(F)(F)F
QUALITATIVE LABEL: MID
--
SMILES STRUCTURE: N[C@H]1CN(c2cnc3nccnc3n2)CC[C@@H]1c1cc(F)c(F)cc1F.O=C(O)C(F)(F)F
QUALITATIVE LABEL: MID
--
SMILES STRUCTURE: Cc1nc2ccc(N3CC[C@H](c4cc(F)c(F)cc4F)[C@@H](N)C3)nc2c(=O)[nH]1
QUALITATIVE LABEL: LOW
--
SMILES STRUCTURE: N[C@H]1CN(c2ccccn2)CC[C@@H]1c1cc(F)c(F)cc1F
QUALITATIVE LABEL: MID
--
SMILES STRUCTURE: N[C@H]1CN(c2ccncn2)CC[C@@H]1c1cc(F)c(F)cc1F
QUALITATIVE LABEL: MID
--
SMILES STRUCTURE: N[C@H]1CN(c2ccc3ncnc(C4CC4)c3n2)CC[C@@H]1c1cc(F)c(F)cc1F
QUALITATIVE LABEL: LOW

====

As shown below, each of these compounds has a reported bioavailability value.
ASSAY REMARKS: Bioavailability iin rat at 1 mg/kg iv or 2 mg/kg po
Type: ADME, organism-based
CONDITION DETAILS: in vivo

SMILES STRUCTURE: Cc1nnc2ccc(N3CC[C@H](c4cc(F)c(F)cc4F)[C@@H](N)C3)nn12.O=C(O)C(F)(F)F
bioavailability: 100%
//
SMILES STRUCTURE: N[C@H]1CN(c2ccc3nc(=O)ccn3n2)CC[C@@H]1c1cc(F)c(F)cc1F.O=C(O)C(F)(F)F
bioavailability: 12%
//
SMILES STRUCTURE: N[C@H]1CN(c2ccn3cnnc3n2)CC[C@@H]1c1cc(F)c(F)cc1F.O=C(O)C(F)(F)F
bioavailability: 19%
//
SMILES STRUCTURE: Cc1cc(=O)n2nc(N3CC[C@H](c4cc(F)c(F)cc4F)[C@@H](N)C3)ccc2n1.O=C(O)C(F)(F)F
bioavailability: 74%
//
SMILES STRUCTURE: N[C@H]1CN(c2cnc3nccnc3n2)CC[C@@H]1c1cc(F)c(F)cc1F.O=C(O)C(F)(F)F
bioavailability: 45%
